Hey, just so you know, these numbers are from PubChem BioAssay (NCI).

Tested on: LXFL 529 NSCLC
protocolText: NCI tumour cell line growth inhibition, 48 h
readout: TGI

• Cc1cc2c(C)n(Cc3ccccc3Cl)nc2c(C(=O)O)c1C = > 100 µM
• O=C1C(c2ccc(Br)cc2)=[N+]([O-])c2ccccc21 = 18.8 µM
• COc1c2c(c3ccccc3c1O)C1C=CC2C1 (centres undefined) = 14.7 µM

Item `COC(=O)N/N=C(\C)c1c(O)cc(C)oc1=O` has what recorded TGI? 45.5 µM

Value lookup for TGI; key = CCOP(=O)(OCC)C1CCCOC1=O (centres undefined) > 100 µM

Item `CC1=C(C(=O)Nc2ccccc2)C(c2cccc3ccccc23)C(C(=O)Nc2ccccc2)=C(C)N1` has what recorded TGI? 34.4 µM

Name the recorded TGI for `O=C1CC(c2ccccc2)=Nc2ccccc2N1` . > 100 µM

Need TGI of `N/C(=N\N=C\c1ccc(C(F)(F)F)cc1)NO` , thanks. > 100 µM

---

System: CAKI-1 renal
protocolText: NCI tumour cell line growth inhibition, 48 h
Entries annotated with measured TGI

Sample records with TGI:
- COc1cc2c(c(O)c1OC)CC1CCC(=O)N1C2c1cccc2ccccc12 (stereo not given): 47.1 µM
- CN(C)c1ccc(/C=C(\NC(=O)c2ccccc2)C2=NC(CCC(=O)O)C(=O)O2)cc1 (stereo not given): > 50 µM
- Cc1c(N=Nc2ccccc2)c(C)n(C2OC(CO)C(O)C(O)C2O)c(=S)c1C#N (stereo not given): > 100 µM
- CCOC(=O)C(Cc1ccc(OC(=O)OC(C)(C)C)cc1)NC(=O)OC(C)(C)C (stereo not given): > 100 µM
- CSc1ccn(C2CC(F)C(CO)O2)c(=O)n1 (stereo not given): > 100 µM
- CC1=C(c2ccccc2)C(O)(c2ccccc2)C(C)C1=O (stereo not given): > 100 µM
- NCC(O)CNC(=O)c1ccc(-c2ccc(-c3ccc(C(=O)NCC(O)CN)cc3)o2)cc1 (stereo not given): > 100 µM
- COC(=O)C1Cc2c(n(C)c3ccccc23)C(CCC(=O)O)N1Cc1ccccc1 (stereo not given): > 100 µM
- O=[N+]([O-])C(/C=N/Nc1ccccc1)/C=N/Nc1ccccc1: > 100 µM

Look at this compound and give its reported TGI. `CC(=O)Oc1c2c(c3n(c1=O)CCCC3)C(=O)N(c1ccccc1)C2=O` > 100 µM

---

System: COLO 205 colon
protocolText: NCI tumour cell line growth inhibition, 48 h
readout: TGI (µM)
Dear colleague, please return just the value in µM, with no unit written.

- O=[N+]([O-])C=C(c1ccc(Cl)cc1)c1ccc(Cl)cc1: 12.2

Give its TGI value. Item: Nc1nc([Se])c2ncn(C3OC(CO)C(O)C3O)c2n1 (stereo not given) 72.5

Please look up its TGI: `O=S(=O)(NNc1ccccc1)c1ccccc1` 22.3

Tell me the measured TGI of `Cc1cc(S(=O)(=O)Nc2nc3ccccc3nc2-c2ccc(Cl)cc2)c(S)cc1Cl` , please. 30.2

// query TGI value for entry `COc1cc(OC)c2c3c(OC)cc(OC)c4c(=O)c(O)c(C[C@@H](C)O)c(c5c(C[C@@H](C)O)c(O)c(=O)c1c25)c43` 16.7

---

System: IGROV1 ovarian
protocolText: NCI tumour cell line growth inhibition, 48 h
readout: TGI

Reference set, count: 5
- CC1=C(c2ccccc2)C(O)(c2ccccc2)C(C)C1=O (centres undefined): > 100 µM
- COc1ccc(C2C(C#N)=C(S)N(C3OC(COC(C)=O)C(OC(C)=O)C(OC(C)=O)C3OC(C)=O)C(c3ccccc3)=C2C(C)=O)cc1 (centres undefined): > 100 µM
- CCN(CC)CCCNc1cc(OC)cc2nc3cc(Cl)ccc3nc12: 6.78 µM
- C=C1C(O)C[C@H](OC(C)=O)[C@]2(C)C1C(OC(C)=O)[C@]1(C(C)(C)O)CC(O)C(C)=C1[C@@H](OC(=O)c1ccccc1)C2OC(C)=O (some centres undefined): > 10 µM
- O=C(/C=C/c1ccccc1F)c1ccc(Cl)c(Cl)c1: > 72.6 µM

Then this compound:
Entry under review: CC(C)(C)C1CCC2c3c([nH]c4ccccc34)C3C(=O)N(c4ccc(Cl)cc4)C(=O)C3C2C1 (centres undefined) . Reported TGI? > 100 µM
